Provenance of the data: the NIST ThermoML archive (doi:10.1021/acs.jced.8b00217)

- ASSAY_REMARKS: relative permittivity at various frequencies (dimensionless); xn = mol fraction of the nth substance listed
- STATED_CONDITIONS: 298.15 K; 101.3 kPa; Liquid; Frequency=0.01 MHz; Coaxial cylinder capacitor; x1 = 0.7
Friendly reminder: relative permittivity below 10 is met, at or above is not met.

[[record]]
molecule = "O=C1CCCC1 [cyclopentanone] + CCCCCCCCO"
label = "not met"

[[record]]
molecule = "O=C1CCCC1 [cyclopentanone] + CCCCCCCCCCO"
label = "not met"

[[record]]
molecule = "O=C1CCCC1 [cyclopentanone] + CCO"
label = "not met"

[[record]]
molecule = "O=C1CCCC1 [cyclopentanone] + CCCCCCO"
label = "not met"

[[record]]
molecule = "O=C1CCCC1 [cyclopentanone] + CCCCO"
label = "not met"

[[record]]
molecule = "O=C1CCCC1 [cyclopentanone] + C1CCCCC1"
label = "met"


###

Listed here: items and their measured mass density.
- ASSAY_REMARKS: xn = mol fraction of the nth substance listed
- STATED_CONDITIONS: 298.15 K; 101.3 kPa; Liquid; Vibrating tube method; x1 = 0.6
PARAMETER: mass density (kg/m3)

[[record]]
compound = "O=C1CCCC1 [cyclopentanone] + CCCCCCCCCCO"
unit_label = "kg/m3"
numeric_result = 870.34

[[record]]
compound = "O=C1CCCC1 [cyclopentanone] + CCCCCCCCO"
unit_label = "kg/m3"
numeric_result = 874.88

[[record]]
compound = "O=C1CCCC1 [cyclopentanone] + CCCCCCO"
unit_label = "kg/m3"
numeric_result = 879.48

[[record]]
compound = "O=C1CCCC1 [cyclopentanone] + CCO"
unit_label = "kg/m3"
numeric_result = 902.91

[[record]]
compound = "O=C1CCCC1 [cyclopentanone] + CCCCO"
unit_label = "kg/m3"
numeric_result = 893.05


###

- ASSAY_REMARKS: xn = mol fraction of the nth substance listed
- STATED_CONDITIONS: 298.15 K; 101.3 kPa; Liquid; Vibrating tube method; x1 = 0.9
PARAMETER: mass density (kg/m3)

[[record]]
compound = "O=C1CCCC1 [cyclopentanone] + CCCCO"
parameter = "mass density"
numeric_result = 932.67

[[record]]
compound = "O=C1CCCC1 [cyclopentanone] + CCCCCCCCCCO"
parameter = "mass density"
numeric_result = 921.01

[[record]]
compound = "O=C1CCCC1 [cyclopentanone] + CCCCCCO"
parameter = "mass density"
numeric_result = 926.64

[[record]]
compound = "O=C1CCCC1 [cyclopentanone] + CCCCCCCCO"
parameter = "mass density"
numeric_result = 923.62

[[record]]
compound = "O=C1CCCC1 [cyclopentanone] + CCO"
parameter = "mass density"
numeric_result = 936.58


###

- ASSAY_REMARKS: refractive index (Na D-line) (dimensionless)
- STATED_CONDITIONS: 298.15 K; 101.3 kPa; Liquid; Standard Abbe refractometry
PARAMETER: refractive index

[[record]]
molecule = "CCO [ethanol]"
parameter = "refractive index"
numeric_result = 1.3594

[[record]]
molecule = "C1CCCCC1 [cyclohexane]"
parameter = "refractive index"
numeric_result = 1.4235

[[record]]
molecule = "CCCCO [butan-1-ol]"
parameter = "refractive index"
numeric_result = 1.3971

[[record]]
molecule = "CCCCCCCCO [octan-1-ol]"
parameter = "refractive index"
numeric_result = 1.4276

[[record]]
molecule = "O=C1CCCC1 [cyclopentanone]"
parameter = "refractive index"
numeric_result = 1.4347

[[record]]
molecule = "CCCCCCO [hexan-1-ol]"
parameter = "refractive index"
numeric_result = 1.4161

[[record]]
molecule = "CCCCCCCCCCO [decan-1-ol]"
parameter = "refractive index"
numeric_result = 1.4352


###

- ASSAY_REMARKS: relative permittivity at various frequencies (dimensionless); xn = mol fraction of the nth substance listed
- STATED_CONDITIONS: 298.15 K; 101.3 kPa; Liquid; Frequency=0.01 MHz; Coaxial cylinder capacitor; x1 = 0.1
PARAMETER: relative permittivity

[[record]]
molecule = "O=C1CCCC1 [cyclopentanone] + CCCCO"
parameter = "relative permittivity"
numeric_result = 16.31

[[record]]
molecule = "O=C1CCCC1 [cyclopentanone] + CCCCCCCCO"
parameter = "relative permittivity"
numeric_result = 9.63

[[record]]
molecule = "O=C1CCCC1 [cyclopentanone] + CCCCCCCCCCO"
parameter = "relative permittivity"
numeric_result = 7.75

[[record]]
molecule = "O=C1CCCC1 [cyclopentanone] + C1CCCCC1"
parameter = "relative permittivity"
numeric_result = 2.78

[[record]]
molecule = "O=C1CCCC1 [cyclopentanone] + CCO"
parameter = "relative permittivity"
numeric_result = 22.42

[[record]]
molecule = "O=C1CCCC1 [cyclopentanone] + CCCCCCO"
parameter = "relative permittivity"
numeric_result = 12.44


###

Listed here: items and their measured mass density.
- ASSAY_REMARKS: xn = mol fraction of the nth substance listed
- STATED_CONDITIONS: 298.15 K; 101.3 kPa; Liquid; Vibrating tube method; x1 = 0.2
PARAMETER: mass density (kg/m3)

[[record]]
compound = "O=C1CCCC1 [cyclopentanone] + CCCCCCCCO"
parameter = "mass density"
numeric_result = 833.41

[[record]]
compound = "O=C1CCCC1 [cyclopentanone] + CCCCCCO"
parameter = "mass density"
numeric_result = 832.61

[[record]]
compound = "O=C1CCCC1 [cyclopentanone] + CCCCO"
parameter = "mass density"
numeric_result = 835.31

[[record]]
compound = "O=C1CCCC1 [cyclopentanone] + CCCCCCCCCCO"
parameter = "mass density"
numeric_result = 833.22

[[record]]
compound = "O=C1CCCC1 [cyclopentanone] + CCO"
parameter = "mass density"
numeric_result = 833.48


###

- ASSAY_REMARKS: refractive index (Na D-line) (dimensionless); xn = mol fraction of the nth substance listed
- STATED_CONDITIONS: 298.15 K; 101.3 kPa; Liquid; Standard Abbe refractometry; x1 = 0.3
PARAMETER: refractive index

[[record]]
compound = "O=C1CCCC1 [cyclopentanone] + CCCCCCCCO"
numeric_result = 1.4282

[[record]]
compound = "O=C1CCCC1 [cyclopentanone] + CCCCCCCCCCO"
numeric_result = 1.4335

[[record]]
compound = "O=C1CCCC1 [cyclopentanone] + CCCCO"
numeric_result = 1.4098

[[record]]
compound = "O=C1CCCC1 [cyclopentanone] + C1CCCCC1"
numeric_result = 1.4244

[[record]]
compound = "O=C1CCCC1 [cyclopentanone] + CCCCCCO"
numeric_result = 1.4204

[[record]]
compound = "O=C1CCCC1 [cyclopentanone] + CCO"
numeric_result = 1.3884


###

- ASSAY_REMARKS: refractive index (Na D-line) (dimensionless); xn = mol fraction of the nth substance listed
- STATED_CONDITIONS: 298.15 K; 101.3 kPa; Liquid; Standard Abbe refractometry; x1 = 0.5
PARAMETER: refractive index

[[record]]
compound = "O=C1CCCC1 [cyclopentanone] + CCCCCCCCCCO"
parameter = "refractive index"
numeric_result = 1.4332

[[record]]
compound = "O=C1CCCC1 [cyclopentanone] + CCCCCCCCO"
parameter = "refractive index"
numeric_result = 1.4294

[[record]]
compound = "O=C1CCCC1 [cyclopentanone] + CCCCCCO"
parameter = "refractive index"
numeric_result = 1.4239

[[record]]
compound = "O=C1CCCC1 [cyclopentanone] + CCO"
parameter = "refractive index"
numeric_result = 1.4046

[[record]]
compound = "O=C1CCCC1 [cyclopentanone] + C1CCCCC1"
parameter = "refractive index"
numeric_result = 1.4262

[[record]]
compound = "O=C1CCCC1 [cyclopentanone] + CCCCO"
parameter = "refractive index"
numeric_result = 1.4175


###

- ASSAY_REMARKS: refractive index (Na D-line) (dimensionless); xn = mol fraction of the nth substance listed
- STATED_CONDITIONS: 298.15 K; 101.3 kPa; Liquid; Standard Abbe refractometry; x1 = 0.8
Listed here: items and their measured refractive index.
PARAMETER: refractive index

[[record]]
molecule = "O=C1CCCC1 [cyclopentanone] + C1CCCCC1"
parameter = "refractive index"
numeric_result = 1.4306

[[record]]
molecule = "O=C1CCCC1 [cyclopentanone] + CCCCCCCCO"
parameter = "refractive index"
numeric_result = 1.4321

[[record]]
molecule = "O=C1CCCC1 [cyclopentanone] + CCCCCCO"
parameter = "refractive index"
numeric_result = 1.4301

[[record]]
molecule = "O=C1CCCC1 [cyclopentanone] + CCCCCCCCCCO"
parameter = "refractive index"
numeric_result = 1.4336

[[record]]
molecule = "O=C1CCCC1 [cyclopentanone] + CCCCO"
parameter = "refractive index"
numeric_result = 1.4282

[[record]]
molecule = "O=C1CCCC1 [cyclopentanone] + CCO"
parameter = "refractive index"
numeric_result = 1.4242

